Reference for the values: patent US9540337B2

# Study System: Human GGT1 (hGGT) (Homo sapiens, UniProt P19440)
# Sequence (P19440 381-569 limits assumed): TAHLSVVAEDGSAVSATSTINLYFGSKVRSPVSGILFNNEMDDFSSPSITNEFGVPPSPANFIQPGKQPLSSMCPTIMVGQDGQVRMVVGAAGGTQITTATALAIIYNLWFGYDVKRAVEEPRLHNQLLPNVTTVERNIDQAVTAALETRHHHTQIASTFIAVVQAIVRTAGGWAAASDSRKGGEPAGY
# Sequence (P19440 27-380 limits assumed): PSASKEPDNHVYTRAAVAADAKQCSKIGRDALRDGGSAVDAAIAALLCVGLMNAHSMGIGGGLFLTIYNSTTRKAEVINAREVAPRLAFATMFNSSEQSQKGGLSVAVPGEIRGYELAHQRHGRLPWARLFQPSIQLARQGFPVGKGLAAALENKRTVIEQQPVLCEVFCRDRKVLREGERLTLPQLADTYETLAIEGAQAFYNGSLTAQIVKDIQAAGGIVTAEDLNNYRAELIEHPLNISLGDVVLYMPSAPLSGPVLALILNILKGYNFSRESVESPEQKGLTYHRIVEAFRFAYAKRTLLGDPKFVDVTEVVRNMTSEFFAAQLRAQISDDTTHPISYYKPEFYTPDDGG
# Procedure Text: L-GpNA Transpeptidation Assay with GlyGly as acceptor
# Type: biochemical
# Set-up: lacking the transmembrane domain; made in house; host or cells: Pichia pastoris
# Measurement Setup: in the presence of 40 mM GlyGly; read-out: Kis of GSH vs L-GpNA
Assay Readout: Ki (mM)
Return type: number; implicit unit mM.

Ki reported for this compound N[C@@H](CCC(=O)N[C@@H](CS)C(=O)NCC(=O)O)C(=O)O [GSH, glutathione, reference compound] : 1.4

----------
# Study System: UniProtKB P19440
# Procedure Text: L-GpNA Transpeptidation Assay with GlyGly as acceptor
# Format: biochemical
# Design: lacking the transmembrane domain; made in house; host or cells: Pichia pastoris
# Measurement Setup: Table 3; read-out: Transpeptidation GlyGly Kis
Assay Readout: pKi
// pKi is dimensionless: -log10 of concentration (M)

Observed pKi, UniProtKB P19440, O=[N+]([O-])c1ccc(S(=O)(=O)Nc2nnc(Cc3ccc(F)cc3)s2)cc1 [Compound 19] : 4.50

Form: item Cc1ccc(Cc2nnc(NS(=O)(=O)c3ccc([N+](=O)[O-])cc3)s2)cc1 [Compound 17] ; test system UniProtKB P19440; pKi: 4.24

Response field pKi (UniProtKB P19440) for item O=[N+]([O-])c1ccc(S(=O)(=O)Nc2nnc(Cc3cccc(Cl)c3)s2)cc1 [Compound 15] : 4.36

// returns pKi for Cc1cccc(Cc2nnc(NS(=O)(=O)c3ccc([N+](=O)[O-])cc3)s2)c1 [Compound 18] with UniProtKB P19440; value = 4.46

// assay UniProtKB P19440, entry O=[N+]([O-])c1ccc(Cc2nnc(NS(=O)(=O)c3ccc([N+](=O)[O-])cc3)s2)cc1 [Compound 14] , pKi value = 4.09

Case O=[N+]([O-])c1ccc(S(=O)(=O)Nc2nnc(Cc3ccccc3)s2)cc1 [Compound 13] , UniProtKB P19440, pKi recorded as 4.22

The molecule O=[N+]([O-])c1ccc(S(=O)(=O)Nc2nnc(Cc3ccc(Cl)cc3)s2)cc1 [Compound 16] , when measured on UniProtKB P19440, yielded pKi of 4.35
